Target or system Staphylococcus aureus 113: recorded MIC listed per item.
The figure you give is taken to be in µM; do not add the unit.

Below, 3 compounds whose answers are already recorded.
CC(C)[C@H](N)C(=O)N[C@@H](Cc1c[nH]c2ccccc12)C(=O)N[C@@H](CCCN=C(N)N)C(=O)N[C@@H](Cc1c[nH]c2ccccc12)C(=O)N[C@@H](Cc1c[nH]c2ccccc12)C(=O)N[C@@H](Cc1c[nH]c2ccccc12)C(=O)N[C@@H](CCCN=C(N)N)C(=O)N[C@@H](Cc1c[nH]c2ccccc12)C(=O)N[C@H](C(N)=O)C(C)C    4
CC[C@H](C)[C@H](N)C(=O)N[C@@H](Cc1c[nH]c2ccccc12)C(=O)N[C@@H](CCCN=C(N)N)C(=O)N[C@@H](Cc1c[nH]c2ccccc12)C(=O)N[C@@H](Cc1c[nH]c2ccccc12)C(=O)N[C@@H](Cc1c[nH]c2ccccc12)C(=O)N[C@@H](CCCN=C(N)N)C(=O)N[C@@H](Cc1c[nH]c2ccccc12)C(=O)N[C@H](C(N)=O)[C@@H](C)CC    4
CC(C)[C@H](N)C(=O)N[C@@H](CCCN=C(N)N)C(=O)N[C@@H](CCCN=C(N)N)C(=O)N[C@@H](Cc1c[nH]c2ccccc12)C(=O)N[C@@H](Cc1c[nH]c2ccccc12)C(=O)N[C@@H](Cc1c[nH]c2ccccc12)C(=O)N[C@@H](CCCN=C(N)N)C(=O)N[C@@H](CCCN=C(N)N)C(=O)N[C@H](C(N)=O)C(C)C    16

Field: next compound
Item: "CC(C)C[C@H](NC(=O)[C@@H](NC(=O)[C@H](CCCCN)NC(=O)[C@H](CCCCN)NC(=O)[C@H](Cc1c[nH]c2ccccc12)NC(=O)[C@H](CC(C)C)NC(=O)[C@H](CCCN=C(N)N)NC(=O)[C@H](CC(C)C)NC(=O)[C@H](C)NC(=O)[C@H](CCCCN)NC(=O)CNC(=O)[C@H](CC(C)C)NC(=O)[C@H](CC(C)C)NC(=O)[C@H](CO)NC(=O)CNC(=O)[C@H](Cc1ccccc1)NC(=O)CN)C(C)C)C(N)=O" Test system: Staphylococcus aureus 113 Read-out: MIC Value: ? 4.24

---

Tested on: Escherichia coli DH5alpha
Protocol Summary: ≥ marks a high value that may be exact or a test limit, other limits are often not marked, values filed in µg/mL are converted to µM
Quantity: MIC (µM)
The figure you give is taken to be in µM; do not add the unit.

NCCCC[C@H](NC(=O)[C@H](CCCCN)NC(=O)[C@H](CCCCN)NC(=O)[C@H](Cc1ccccc1)NC(=O)[C@H](Cc1ccccc1)NC(=O)[C@H](Cc1ccccc1)NC(=O)[C@H](Cc1ccccc1)NC(=O)[C@H](Cc1ccccc1)NC(=O)[C@H](CCCCN)NC(=O)[C@H](CCCCN)NC(=O)[C@@H](N)CCCCN)C(=O)O    16

// lookup MIC for "CC[C@H](C)[C@H](N)C(=O)N[C@@H](CC(C)C)C(=O)N[C@@H](C)C(=O)N[C@@H](Cc1c[nH]c2ccccc12)C(=O)N[C@@H](CCCCN)C(=O)N[C@@H](Cc1c[nH]c2ccccc12)C(=O)N1CCC[C@H]1C(=O)N[C@@H](Cc1c[nH]c2ccccc12)C(=O)N[C@@H](Cc1c[nH]c2ccccc12)C(=O)N[C@@H](C)C(=O)N[C@@H](Cc1c[nH]c2ccccc12)C(=O)N[C@@H](CCCN=C(N)N)C(=O)N[C@@H](CCCN=C(N)N)C(N)=O" 25
